B1: Pituitary-specific positive transcription factor 1, residues 130 to 198; numbered along this chain, P28069 (parent)
chain: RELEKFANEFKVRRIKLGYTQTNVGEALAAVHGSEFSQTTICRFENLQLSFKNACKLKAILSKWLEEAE

Variants of: B1
Test: abundance fitness (aPCA) (normalised: wild type 0, dead -1); higher = more abundant; growth selection in yeast, the domain comes from the species named
Conditions: Homo sapiens
Outcome: yes for abundance fitness of at least -0.4; no for anything lower.

A selection of reference data follows.
F44A
no
V12L
yes
F44M
no
E4S
yes
T22H
yes

Could you please find out whether "A68D" has abundance fitness that meets -0.4 or exceeds it?
no

Could you please find out whether "L65Y" has abundance fitness that meets -0.4 or exceeds it?
no

Could you please find out whether "A68C" has abundance fitness that meets -0.4 or exceeds it?
no

Could you please find out whether "E67D" has abundance fitness that meets -0.4 or exceeds it?
yes

Could you please find out whether "W64Q" has abundance fitness that meets -0.4 or exceeds it?
no

// provenance: the Human Domainome abundance scans (Beltran et al. 2025)
